experiment description: Clinical pharmacokinetics: plasma CYH33 and I27 by LC/MS/MS
Assay type: in vivo, human
condition info: human, plasma, oral; CYH33, Cycle 1 Day 1, 1 mg (n = 1); read-out: AUC0-∞, mean (CV%)
assay metric: AUC(0-inf) (ng·h/mL)
The reply should be a number in ng·h/mL, with the unit left off.

[in] Find the recorded AUC(0-inf) belonging to COC(=O)Nc1cc(C(F)(F)F)c(-c2nc(N3CCOCC3)c3cc(CN4CCN(S(C)(=O)=O)CC4)cn3n2)cn1 and report it.
[out] 36.8

====

experiment description: Clinical pharmacokinetics: plasma CYH33 and I27 by LC/MS/MS
Type: in vivo, human
condition info: human, plasma, oral, 60 mg, CYH33, Cycle 1 Day 1, 60 mg (n = 4); read-out: Cmax, mean (CV%)
assay metric: Cmax (ng/mL)
The reply should be a number in ng/mL, with the unit left off.

[in] Find the recorded Cmax belonging to COC(=O)Nc1cc(C(F)(F)F)c(-c2nc(N3CCOCC3)c3cc(CN4CCN(S(C)(=O)=O)CC4)cn3n2)cn1 [CYH33] and report it.
[out] 123
